Critical pressure reference
settings: Liquid; Resistive pulse heating
Respond with the bare value in kPa.

Name the reported Critical pressure value associated with the compound CN1CCN(C)CC1 [1,4-dimethylpiperazine]
3730

Name the reported Critical pressure value associated with the compound C[S+](C)[O-] [dimethyl sulfoxide]
5130

Name the reported Critical pressure value associated with the compound O=C1CCCCCN1 [1-aza-2-cycloheptanone]
4660

Name the reported Critical pressure value associated with the compound CC1CNCC(C)N1 (centres undefined) [2,6-dimethylpiperazine]
3800

----------
settings: Liquid; Resistive pulse heating
reported endpoint: Critical temperature (K)
Respond with the bare value in K.

INSERT INTO measurements (compound, reported_endpoint, recorded_result) VALUES
  ('CN1CCN(C)CC1', 'Critical temperature', 606),
  ('CC1CNCC(C)N1 (centres undefined)', 'Critical temperature', 646),
  ('O=C1CCCCCN1', 'Critical temperature', 801);

Name the reported Critical temperature value associated with the compound C[S+](C)[O-] [dimethyl sulfoxide]
718
